system: HIV-1/LASV pseudovirus; test: microbe, parasite or virus in culture; type: cell-based; settings: 10 µM
Measured Property: Inhibition HIV/LASV

- COc1nc2ccccc2cc1C(Nc1ccccc1N1CCN(C)C1=O)c1ccccc1 (stereo not shown) [SYL1662]: 89.05%
- COc1ccccc1COc1nc2ccc(Br)cc2cc1-c1ccc(CN(C)C)cc1 [SYL1705]: 88.92%
- CN(C)Cc1cccc(-c2cc3cc(Br)ccc3nc2OCc2cccc(F)c2)c1 [SYL1666]: 91.03%

Let us move to another entry and its Inhibition HIV/LASV.
Lookup: Can you look up the measured Inhibition HIV/LASV of CN(C)Cc1ccc(-c2cc3cc(Br)ccc3nc2OCc2ccccc2)cc1 [SYL1675] for me?
Found: 91.37%
